Kindly supply the reported IC50 values for the records listed here.
assay: Cytotoxicity against human K562/A02 cells assessed as cell viability after 48 hrs by MTT assay; assay type: cell-based; settings: K562/A02, 48 h

Look up IC50: `COc1cc2c(cc1OC)CN(CCc1ccc(-n3cc(COc4ccccc4)nn3)cc1)CC2`
> 100 µM

Given `COc1cc2c(cc1OC)CN(CCn1cc(COc3ccc(F)cc3)nn1)CC2` , state its recorded IC50.
> 100 µM

Fill blank: measured IC50 of the compound `COc1cc2c(cc1OC)CN(CCc1ccc(-n3cc(COc4ccc([N+](=O)[O-])cc4)nn3)cc1)CC2` is ____.
> 100 µM

So what does the record say about IC50 for `COc1ccc(OCc2cn(-c3ccc(CCN4CCc5cc(OC)c(OC)cc5C4)cc3)nn2)cc1` ?
> 100 µM

Requested read-out: IC50. Entry: `COc1cc2c(cc1OC)CN(CCn1cc(COc3ccc([N+](=O)[O-])cc3)nn1)CC2`
> 100 µM

Fill blank: measured IC50 of the compound `COc1cc2c(cc1OC)CN(CCc1ccc(-n3cc(COc4ccc5ccccc5c4)nn3)cc1)CC2` is ____.
> 100 µM

What value of measured IC50 is listed for `COc1cc2c(cc1OC)CN(CCn1cc(COc3ccc(C)c(C)c3)nn1)CC2` ?
> 100 µM

// lookup IC50 for `COc1ccc(C(=O)Nc2ccccc2C(=O)Nc2ccc(CCN3CCc4cc(OC)c(OC)cc4C3)cc2)cc1OC`
50.1 µM

Using the record for `COc1cc2c(cc1OC)CN(CCc1ccc(-n3cc(COc4cccc5cccnc45)nn3)cc1)CC2` , report its IC50.
> 100 µM

Reported IC50 for `COc1cc2c(cc1OC)CN(CCn1cc(COc3ccccc3C(C)(C)C)nn1)CC2` : what is it?
> 100 µM

State the recorded IC50 for this entry: `COc1cc2c(cc1OC)CN(CCn1cc(COc3ccc(C(C)(C)C)cc3)nn1)CC2`
> 100 µM

----------
test system: K562/A02; test: Reversal of P-gp-mediated resistance to adriamycin in human K562/A02 cells assessed as reduction in adriamycin IC50 at 5 uM after 48 hrs by MTT assay relative to control; type: cell-based
Record form. Attribute: fold change (FC). Fill in for each entry.
Output: the number by itself.

Query (molecule): `COc1cc2c(cc1OC)CN(CCc1ccc(-n3cc(COc4cccc5ccccc45)nn3)cc1)CC2` ; field requested: fold change (FC)
21

Look at this molecule and give its reported fold change (FC). `COc1cc2c(cc1OC)CN(CCn1cc(COc3ccc([N+](=O)[O-])cc3)nn1)CC2`
3.1

Return reported fold change (FC); argument: `COc1cc2c(cc1OC)CN(CCc1ccc(-n3cc(COc4ccc(C(C)(C)C)cc4)nn3)cc1)CC2`
9.3

GET /values?readout=fold change (FC)&item= `COc1cc2c(cc1OC)CN(CCn1cc(COc3ccccc3C(C)(C)C)nn1)CC2`
9.6

Look up fold change (FC): `COc1cc2c(cc1OC)CN(CCn1cc(COc3ccc(C(C)(C)C)cc3)nn1)CC2`
20.4

----------
tested on: K562/A02; experiment: Reversal of P-gp-mediated resistance to adriamycin in human K562/A02 cells assessed as reduction in adriamycin IC50 at 5 uM after 48 hrs by MTT assay relative to control; type: cell-based
Provide the recorded fold change (FC) for the entries that follow.

What does the data say about its fold change (FC)? Entry: `COc1ccc(OCc2cn(-c3ccc(CCN4CCc5cc(OC)c(OC)cc5C4)cc3)nn2)cc1`
3.5

Quick one: fold change (FC) for `CCc1ccc(OCc2cn(-c3ccc(CCN4CCc5cc(OC)c(OC)cc5C4)cc3)nn2)cc1` ?
9.1

Endpoint output: fold change (FC) of `COc1cc2c(cc1OC)CN(CCc1ccc(-n3cc(COc4ccc(C(C)C)cc4)nn3)cc1)CC2` . Value?
9.2

What value of fold change (FC) has been reported for the following compound? `COc1cc2c(cc1OC)CN(CCn1cc(COc3ccc(C(C)C)cc3)nn1)CC2`
7.7

What fold change (FC) value was documented for this compound, `COc1cc2c(cc1OC)CN(CCn1cc(COc3ccc(F)cc3)nn1)CC2` ?
2.7

Entry `COc1cc2c(cc1OC)CN(CCn1cc(COc3ccc(C)cc3C)nn1)CC2` : reported fold change (FC) = ?
4.6

Entry `COc1cc2c(cc1OC)CN(CCc1ccc(-n3cc(COc4cccc5cccnc45)nn3)cc1)CC2` : reported fold change (FC) = ?
10

For `COc1ccc(C(=O)Nc2ccccc2C(=O)Nc2ccc(CCN3CCc4cc(OC)c(OC)cc4C3)cc2)cc1OC` , what is its reported fold change (FC)?
30.4

What does the record list as fold change (FC) for `COc1cc2c(cc1OC)CN(CCc1ccc(-n3cc(COc4ccc(OC(F)(F)F)cc4)nn3)cc1)CC2` ?
5.9
